# Target: Recombinant human His6-USP1/His6-UAF1 complex protein (Homo sapiens, UniProt O94782)
# Construct: His6
# Sequence (O94782 whole entry): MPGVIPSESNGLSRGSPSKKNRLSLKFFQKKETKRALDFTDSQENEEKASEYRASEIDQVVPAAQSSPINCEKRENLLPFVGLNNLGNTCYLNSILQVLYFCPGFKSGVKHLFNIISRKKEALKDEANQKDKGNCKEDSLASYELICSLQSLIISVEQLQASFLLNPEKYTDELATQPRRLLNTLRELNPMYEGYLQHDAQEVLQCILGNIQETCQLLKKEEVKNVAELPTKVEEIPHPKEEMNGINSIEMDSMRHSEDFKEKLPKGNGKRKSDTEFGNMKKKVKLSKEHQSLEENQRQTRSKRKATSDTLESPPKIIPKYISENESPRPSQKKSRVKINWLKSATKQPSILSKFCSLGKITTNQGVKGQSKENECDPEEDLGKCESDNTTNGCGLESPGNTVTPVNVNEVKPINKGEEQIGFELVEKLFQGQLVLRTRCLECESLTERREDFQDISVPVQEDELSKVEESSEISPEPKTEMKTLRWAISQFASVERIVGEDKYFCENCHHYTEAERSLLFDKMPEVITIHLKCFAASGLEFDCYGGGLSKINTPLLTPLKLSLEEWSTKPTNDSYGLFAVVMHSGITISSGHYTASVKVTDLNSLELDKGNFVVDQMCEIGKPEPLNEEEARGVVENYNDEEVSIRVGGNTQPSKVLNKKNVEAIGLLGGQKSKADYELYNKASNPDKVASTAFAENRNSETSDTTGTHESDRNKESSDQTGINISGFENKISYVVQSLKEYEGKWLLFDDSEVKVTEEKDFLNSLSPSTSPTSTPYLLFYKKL
# Sequence (Q8TAF3 whole entry partner): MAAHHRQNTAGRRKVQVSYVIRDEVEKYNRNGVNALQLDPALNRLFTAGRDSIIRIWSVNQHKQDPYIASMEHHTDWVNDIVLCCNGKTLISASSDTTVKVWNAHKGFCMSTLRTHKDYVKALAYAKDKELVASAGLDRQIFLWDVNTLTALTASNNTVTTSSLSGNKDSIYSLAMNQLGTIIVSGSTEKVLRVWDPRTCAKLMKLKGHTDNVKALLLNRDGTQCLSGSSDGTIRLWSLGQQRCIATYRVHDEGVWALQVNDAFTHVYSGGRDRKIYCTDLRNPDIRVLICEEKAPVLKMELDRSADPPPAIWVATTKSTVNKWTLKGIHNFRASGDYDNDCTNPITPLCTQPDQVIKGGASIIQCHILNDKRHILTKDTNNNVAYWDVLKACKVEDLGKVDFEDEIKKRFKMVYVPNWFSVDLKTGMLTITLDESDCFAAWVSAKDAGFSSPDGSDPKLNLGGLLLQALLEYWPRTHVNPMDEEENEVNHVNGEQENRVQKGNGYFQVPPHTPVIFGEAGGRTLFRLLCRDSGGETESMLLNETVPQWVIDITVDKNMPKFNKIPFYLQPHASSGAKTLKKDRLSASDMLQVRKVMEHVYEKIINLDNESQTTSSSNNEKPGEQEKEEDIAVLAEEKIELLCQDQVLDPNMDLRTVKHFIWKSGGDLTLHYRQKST
# Assay: In vitro inhibitory activity against USP1 (Ubiquitin Rhodamine 110 fluorescence detection, 384-well plate)
# Protocol conditions: Ub-Rho substrate, 1 hour pre-incubation, read after 30 minutes
Reported endpoint: IC50 (nM)
Lab book: enter the figure in nM, no units written.

Solved cases (5 shown):
>  <Compound>
COc1cnc(-c2c(OC)ncnc2C2CC2)nc1N(C)Cc1ccc(-c2nc(C(F)(F)F)cn2C)cc1

>  <Recorded value>
1.4

$$$$
>  <Compound>
COc1cnc(-c2c(OC)cnn2C(C)C)nc1NCc1ccc(-c2ccccn2)cc1

>  <Recorded value>
110

$$$$
>  <Compound>
COc1cnc(-c2c(OC)ncnc2C2CC2)nc1N(Cc1ccc(-c2nc(C(F)(F)F)cn2C)cc1)OC

>  <Recorded value>
25

$$$$
>  <Compound>
COc1ncnc(C2CC2)c1-c1nc(NCc2ccc(-c3nc(C(F)F)cn3C)cc2)c2occc2n1

>  <Recorded value>
20

$$$$
>  <Compound>
COc1ncnc(C2CC2)c1-c1nc(NCc2ccc(-c3ccccn3)cc2)c2[nH]ccc2n1

>  <Recorded value>
51

$$$$

Form field: reported IC50 of `COc1cc(-n2nc(C(F)(F)F)cc2C)ccc1CNc1nc(-c2ccccc2C(C)C)nc2ccoc12`
4.4

Form field: reported IC50 of COc1cnc(-c2cccnc2C(C)C)nc1NCC12C3C4C1C1C2C3C41c1nc(C(F)(F)F)cn1C (stereo not drawn)
1.2

Form field: reported IC50 of `COc1cnc(-c2c(C)noc2C(C)C)nc1NCC1CCN(c2nc(C(F)(F)F)cn2C)CC1`
23.5

Form field: reported IC50 of `COc1ncnc(C2CC2)c1-c1ncc(OC(F)F)c(NCc2ccc(-n3nc(C(F)(F)F)cc3C)cc2)n1`
3.2

Form field: reported IC50 of `COc1cnc(-c2cncnc2C2CC2)nc1NCc1ccc(-c2nc(C(F)F)cn2C)cc1`
243

Form field: reported IC50 of `COc1cnc(-c2c(OC)ncnc2C2CC2)nc1NCc1ccc(-c2nc(C(F)(F)F)cn2CF)cc1`
16

----------
# Target: Recombinant human His6-USP1/His6-UAF1 complex protein (Homo sapiens)
# Construct: His6; purchased R&D E-568-050
# Assay: In vitro inhibitory activity against USP1 (Ubiquitin Rhodamine 110 fluorescence detection, 384-well plate)
# Format: biochemical
# Protocol conditions: Ub-Rho substrate, 1 hour pre-incubation, read after 30 minutes
pIC50: −log10 of the molar value.
Decision: pIC50 compared against 8; not below it gives label 1, below it gives label 0.

Solved cases below.
>  <Compound>
CC(C)c1ccccc1-c1ncc(C#N)c(NCc2ccc(-c3nc(C(F)(F)F)cn3C)cc2)n1 [Example 39]

>  <Cat>
label 1

$$$$
>  <Compound>
COc1ncnc(C2CC2)c1-c1nc(NCc2ccc(-c3nc(C(F)(F)F)cn3C)s2)c2occc2n1 [Example 113]

>  <Cat>
label 0

$$$$
>  <Compound>
Cn1cc(C(F)F)nc1-c1ccc(CNc2nc(-c3cncnc3C3CC3)nc3ccoc23)cc1 [Example 197]

>  <Cat>
label 0

$$$$
>  <Compound>
COc1cnc(-c2c(OC)ncnc2C2CC2)nc1NCC12C3C4C1C1C2C3C41c1nc(C(F)(F)F)cn1C (stereo not shown) [Example 215]

>  <Cat>
label 1

$$$$
>  <Compound>
CC(C)c1ccccc1-c1ncc(C(F)(F)F)c(NCC2CCN(c3nc(C(F)(F)F)cn3C)CC2)n1 [Example 75]

>  <Cat>
label 1

$$$$

Reported pIC50 reaches at least 8 for CC(C)c1ccccc1-c1nc(NCc2ccc3c(c2)CCN(C)C3=O)c2occc2n1 [Example 77] ?
label 0

Reported pIC50 reaches at least 8 for [2H]C([2H])([2H])N(Cc1ccc(-c2nc(C(F)(F)F)cn2C2CC2)cc1)c1nc(-c2c(OC)ncnc2C2CC2)ncc1F [Example 128] ?
label 1

Reported pIC50 reaches at least 8 for COC1CC(Oc2ccc(CNc3nc(-c4ccccc4C(C)C)nc4ccoc34)cc2)C1 (stereo not shown) [Example 80] ?
label 0

Reported pIC50 reaches at least 8 for COc1cnc(-c2ccccc2C(C)C)nc1N(C)Cc1ccc(-c2ccccn2)cc1 [Example 1] ?
label 0

Reported pIC50 reaches at least 8 for COc1ncnc(C2CC2)c1-c1ncc2c(n1)N(CC1CCN(c3ccccn3)CC1)CCO2 [Example 10] ?
label 0

----------
Item-by-item account of pIC50
# Target: Recombinant human His6-USP1/His6-UAF1 complex protein (Homo sapiens, UniProt O94782)
# Construct: His6
# Assay: In vitro inhibitory activity against USP1 (Ubiquitin Rhodamine 110 fluorescence detection, 384-well plate)
# Protocol conditions: Ub-Rho substrate, 1 hour pre-incubation, read after 30 minutes
Schema: pIC50 number; meaning minus log10 of the concentration expressed in molar units.

Solved cases (8 shown):
>  <Molecule>
COc1ncnc(C2CC2)c1-c1nc(NCc2ccc3c(c2)CCN(C(C)C)C3=O)c2occc2n1 [Example 115]

>  <Reported endpoint>
pIC50

>  <Recorded value>
7.11

$$$$
>  <Molecule>
[2H]C([2H])([2H])Oc1ncnc(C2CC2)c1-c1ncc(OC)c(N(C[C@H]2CC[C@H](c3nc(C(F)(F)F)cn3C)CC2)C([2H])([2H])[2H])n1 [Example S24]

>  <Reported endpoint>
pIC50

>  <Recorded value>
8.24

$$$$
>  <Molecule>
COc1cnc(-c2ccccc2C(C)C)nc1NC[C@H]1CC[C@H](c2nc(C(F)(F)F)cn2C)CC1 [Example 6]

>  <Reported endpoint>
pIC50

>  <Recorded value>
8.92

$$$$
>  <Molecule>
COc1cnc(-c2c(C)noc2C(C)C)nc1N(C)CC1CCN(c2ccccn2)CC1 [Example 186]

>  <Reported endpoint>
pIC50

>  <Recorded value>
7.18

$$$$
>  <Molecule>
COc1cnc(-c2cccnc2C2CC2)nc1N(C)CC1CCN(c2ccccn2)CC1 [Example 151]

>  <Reported endpoint>
pIC50

>  <Recorded value>
7.14

$$$$
>  <Molecule>
COc1cnc(-c2c(OC)ncnc2C2CC2)nc1N(O)Cc1ccc(-c2nc(C(F)(F)F)cn2C)cc1 [Example 204]

>  <Reported endpoint>
pIC50

>  <Recorded value>
7.60

$$$$
>  <Molecule>
COc1cnc(-c2c(Cl)cnn2C(C)C)nc1NCc1ccc(-n2nc(C(F)(F)F)cc2C)cc1 [Example 165]

>  <Reported endpoint>
pIC50

>  <Recorded value>
8.85

$$$$
>  <Molecule>
COc1cnc(-c2c(OC)ncnc2OC)nc1NC[C@H]1CC[C@H](c2nc(C(F)(F)F)cn2C2CC2)CC1 [Example S29]

>  <Reported endpoint>
pIC50

>  <Recorded value>
7.82

$$$$

Let's switch to this molecule now.
For Recombinant human His6-USP1/His6-UAF1 complex protein (Homo sapiens, UniProt O94782), provide pIC50 of COc1cnc(-c2c(OC)ncnc2C2(F)CC2)nc1NCC1CCC(c2nc(C(F)(F)F)cn2C2CC2)CC1 (stereo not drawn) [Example S38] please.
6.66

----------
# Target: Recombinant human His6-USP1/His6-UAF1 complex protein (Homo sapiens)
# Construct: His6
# Assay: In vitro inhibitory activity against USP1 (Ubiquitin Rhodamine 110 fluorescence detection, 384-well plate)
# Protocol conditions: Ub-Rho substrate, 1 hour pre-incubation, read after 30 minutes
Response field label: string, one of 1 (IC50 strictly below 9 nM) or 0.

Solved cases below.
>  <Compound>
[2H]C([2H])([2H])N(c1nc(-c2c(OC)ncnc2C2CC2)ncc1OC)C(C)c1ccc(-c2nc(C(F)(F)F)cn2C)cc1 (stereo not shown)

>  <Cat>
1

$$$$
>  <Compound>
CC(C)c1ccccc1-c1nc(NCc2ccc3c(c2)CCN(C(C)C)C3=O)c2occc2n1

>  <Cat>
1

$$$$
>  <Compound>
COc1cnc(-c2c(OC)ncnc2C2CC2)nc1N(C)C[C@H]1CC[C@H](c2nc(C(F)(F)F)cn2C)CC1

>  <Cat>
1

$$$$
>  <Compound>
COc1cnc(-c2c(OC)ncnc2C2CC2)nc1NCc1ccc(-c2nc(C(F)(F)F)cn2CC(F)(F)F)cc1

>  <Cat>
0

$$$$

In plain terms, does `CCOCCOc1ccc(CNc2nc(-c3c(OC)ncnc3C3CC3)ncc2OC)cc1` come in under 9 nM for IC50?
0

----------
# Target: Recombinant human His6-USP1/His6-UAF1 complex protein (Homo sapiens, UniProt O94782)
# Construct: His6
# Assay: In vitro inhibitory activity against USP1 (Ubiquitin Rhodamine 110 fluorescence detection, 384-well plate)
# Protocol conditions: Ub-Rho substrate, 1 hour pre-incubation, read after 30 minutes
Reported endpoint: IC50 (nM)
Lab book: enter the figure in nM, no units written.

>  <Smiles>
COc1cnc(-c2c(OC)ncnc2C2CC2)nc1NCC12CCC(c3nc(C(F)(F)F)cn3C)(CC1)CC2

>  <Target>
Recombinant human His6-USP1/His6-UAF1 complex protein (Homo sapiens, UniProt O94782)

>  <IC50, nM>
8.8

$$$$
>  <Smiles>
COc1cnc(-c2cccnc2C2CC2)nc1NCc1ccc(-c2nc(C(F)(F)F)cn2C)cc1

>  <Target>
Recombinant human His6-USP1/His6-UAF1 complex protein (Homo sapiens, UniProt O94782)

>  <IC50, nM>
3.4

$$$$
>  <Smiles>
CC(C)c1ccccc1-c1ncc(C(F)(F)F)c(NCC2CCN(c3ccccn3)CC2)n1

>  <Target>
Recombinant human His6-USP1/His6-UAF1 complex protein (Homo sapiens, UniProt O94782)

>  <IC50, nM>
30.1

$$$$

Form field: reported IC50 of `Cn1cc(C(F)(F)F)nc1-c1ccc(CNc2nc(-c3cncnc3C3CC3)nc3ccoc23)cc1`
12
